target: beta adrenoceptor (heart) (Rattus norvegicus, UniProt P18090); construct: from tissue; host or cells: heart in the whole animal (pithed rat, in vivo); assay: inhibition of isoproterenol-induced tachycardia in the pithed rat; type: in vivo; conditions: inhibition of isoproterenol-induced tachycardia, pithed rat; read-out: Pithed Rat Effective Dose (ID50)
Sequence (P18090 whole entry): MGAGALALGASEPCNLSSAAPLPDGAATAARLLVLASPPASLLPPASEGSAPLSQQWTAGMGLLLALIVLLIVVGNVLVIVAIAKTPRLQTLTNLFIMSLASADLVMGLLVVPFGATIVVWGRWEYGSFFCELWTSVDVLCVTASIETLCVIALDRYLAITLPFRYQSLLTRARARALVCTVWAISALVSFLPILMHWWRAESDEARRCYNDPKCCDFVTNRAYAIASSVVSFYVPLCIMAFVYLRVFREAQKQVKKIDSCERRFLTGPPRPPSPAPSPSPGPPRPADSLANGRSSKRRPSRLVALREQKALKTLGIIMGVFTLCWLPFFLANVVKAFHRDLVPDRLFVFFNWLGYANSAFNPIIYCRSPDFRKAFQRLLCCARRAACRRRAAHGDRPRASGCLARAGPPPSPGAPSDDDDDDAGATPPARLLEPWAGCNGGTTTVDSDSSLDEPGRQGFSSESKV
Rule for this label: 1.0 means ED50 is less than 0.03 mg/kg; 0.0 means ED50 is at least 0.03 mg/kg.

Dear colleague, could you confirm whether ED50 of CCCOCCOc1ccc(OCC(O)CNCCNC(=O)Nc2ccc3[nH]ccc3c2)c(C#N)c1 (centres unmarked) falls below 0.03 mg/kg? Thanks.
1.0

Dear colleague, could you confirm whether ED50 of CCCOCCOc1ccc(OCC(O)CNCCNC(=O)c2ccoc2)cc1 (centres unmarked) falls below 0.03 mg/kg? Thanks.
1.0

Continuing:
Dear colleague, could you confirm whether ED50 of CCCOCCOc1ccc(OCC(O)CN[C@H](C)CNC(=O)c2ccco2)cc1 (some centres unmarked) falls below 0.03 mg/kg? Thanks.
0.0

Dear colleague, could you confirm whether ED50 of N#Cc1cc(OCCOCc2ccc(F)cc2)ccc1OCC(O)CNCCNC(=O)Nc1ccc2[nH]ccc2c1 (centres unmarked) falls below 0.03 mg/kg? Thanks.
0.0
